Catalogue of compounds with associated total FIC90
System: Mycobacterium tuberculosis Erdman (autoluminescent)
Experiment: total FIC90 (Loewe) at 90% inhibition, three-drug combination (log2); higher = more antagonistic
Conditions: in vitro model: acidic pH 5.7; time point: terminal (~4-5 doublings, model-specific)

COMPOUND: COc1nc2ccc(Br)cc2cc1[C@@H](c1ccccc1)[C@@](O)(CCN(C)C)c1cccc2ccccc12 [bedaquiline] + NNC(=O)c1ccncc1 [isoniazid] + O=[N+]([O-])c1cn2c(n1)OC[C@@H](OCc1ccc(OC(F)(F)F)cc1)C2 [pretomanid]
total FIC90: 0.765

COMPOUND: COc1nc2ccc(Br)cc2cc1[C@@H](c1ccccc1)[C@@](O)(CCN(C)C)c1cccc2ccccc12 [bedaquiline] + CC(C)/N=c1\cc2n(-c3ccc(Cl)cc3)c3ccccc3nc-2cc1Nc1ccc(Cl)cc1 [clofazimine] + COc1c(N2C[C@@H]3CCCN[C@@H]3C2)c(F)cc2c(=O)c(C(=O)O)cn(C3CC3)c12 [moxifloxacin]
total FIC90: 0.0494

COMPOUND: CC(C)/N=c1\cc2n(-c3ccc(Cl)cc3)c3ccccc3nc-2cc1Nc1ccc(Cl)cc1 [clofazimine] + NNC(=O)c1ccncc1 [isoniazid] + O=[N+]([O-])c1cn2c(n1)OC[C@@H](OCc1ccc(OC(F)(F)F)cc1)C2 [pretomanid]
total FIC90: 0.567

COMPOUND: CC[C@@H](CO)NCCN[C@@H](CC)CO [ethambutol] + CC(=O)NC[C@H]1CN(c2ccc(N3CCOCC3)c(F)c2)C(=O)O1 [linezolid] + CO[C@H]1/C=C/O[C@@]2(C)Oc3c(C)c(O)c4c(O)c(c(/C=N/N5CCN(C)CC5)c(O)c4c3C2=O)NC(=O)/C(C)=C\C=C\[C@H](C)[C@H](O)[C@@H](C)[C@@H](O)[C@@H](C)[C@H](OC(C)=O)[C@@H]1C [rifampicin]
total FIC90: 0.219

COMPOUND: NNC(=O)c1ccncc1 [isoniazid] + COc1c(N2C[C@@H]3CCCN[C@@H]3C2)c(F)cc2c(=O)c(C(=O)O)cn(C3CC3)c12 [moxifloxacin] + CO[C@H]1/C=C/O[C@@]2(C)Oc3c(C)c(O)c4c(O)c(c(/C=N/N5CCN(C)CC5)c(O)c4c3C2=O)NC(=O)/C(C)=C\C=C\[C@H](C)[C@H](O)[C@@H](C)[C@@H](O)[C@@H](C)[C@H](OC(C)=O)[C@@H]1C [rifampicin]
total FIC90: 0.457

COMPOUND: COc1nc2ccc(Br)cc2cc1[C@@H](c1ccccc1)[C@@](O)(CCN(C)C)c1cccc2ccccc12 [bedaquiline] + CC(C)/N=c1\cc2n(-c3ccc(Cl)cc3)c3ccccc3nc-2cc1Nc1ccc(Cl)cc1 [clofazimine] + NNC(=O)c1ccncc1 [isoniazid]
total FIC90: 0.616

COMPOUND: NNC(=O)c1ccncc1 [isoniazid] + COc1c(N2C[C@@H]3CCCN[C@@H]3C2)c(F)cc2c(=O)c(C(=O)O)cn(C3CC3)c12 [moxifloxacin] + CO[C@H]1/C=C/O[C@@]2(C)Oc3c(C)c(O)c4c(O)c(c(/C=N/N5CCN(C6CCCC6)CC5)c(O)c4c3C2=O)NC(=O)/C(C)=C\C=C\[C@H](C)[C@H](O)[C@@H](C)[C@@H](O)[C@@H](C)[C@H](OC(C)=O)[C@@H]1C [rifapentine]
total FIC90: 0.483

COMPOUND: COc1c(N2C[C@@H]3CCCN[C@@H]3C2)c(F)cc2c(=O)c(C(=O)O)cn(C3CC3)c12 [moxifloxacin] + O=[N+]([O-])c1cn2c(n1)OC[C@@H](OCc1ccc(OC(F)(F)F)cc1)C2 [pretomanid] + NC(=O)c1cnccn1 [pyrazinamide]
total FIC90: -0.227

COMPOUND: CC(C)/N=c1\cc2n(-c3ccc(Cl)cc3)c3ccccc3nc-2cc1Nc1ccc(Cl)cc1 [clofazimine] + O=[N+]([O-])c1cn2c(n1)OC[C@@H](OCc1ccc(OC(F)(F)F)cc1)C2 [pretomanid] + CO[C@H]1/C=C/O[C@@]2(C)Oc3c(C)c(O)c4c(O)c(c(/C=N/N5CCN(C6CCCC6)CC5)c(O)c4c3C2=O)NC(=O)/C(C)=C\C=C\[C@H](C)[C@H](O)[C@@H](C)[C@@H](O)[C@@H](C)[C@H](OC(C)=O)[C@@H]1C [rifapentine]
total FIC90: 0.423

COMPOUND: O=[N+]([O-])c1cn2c(n1)OC[C@@H](OCc1ccc(OC(F)(F)F)cc1)C2 [pretomanid] + NC(=O)c1cnccn1 [pyrazinamide] + CO[C@H]1/C=C/O[C@@]2(C)Oc3c(C)c(O)c4c(O)c(c(/C=N/N5CCN(C)CC5)c(O)c4c3C2=O)NC(=O)/C(C)=C\C=C\[C@H](C)[C@H](O)[C@@H](C)[C@@H](O)[C@@H](C)[C@H](OC(C)=O)[C@@H]1C [rifampicin]
total FIC90: -0.637

COMPOUND: CC(C)/N=c1\cc2n(-c3ccc(Cl)cc3)c3ccccc3nc-2cc1Nc1ccc(Cl)cc1 [clofazimine] + COc1c(N2C[C@@H]3CCCN[C@@H]3C2)c(F)cc2c(=O)c(C(=O)O)cn(C3CC3)c12 [moxifloxacin] + CO[C@H]1/C=C/O[C@@]2(C)Oc3c(C)c(O)c4c(O)c(c(/C=N/N5CCN(C)CC5)c(O)c4c3C2=O)NC(=O)/C(C)=C\C=C\[C@H](C)[C@H](O)[C@@H](C)[C@@H](O)[C@@H](C)[C@H](OC(C)=O)[C@@H]1C [rifampicin]
total FIC90: 0.413
